Tgt: Voltage-dependent T-type calcium channel subunit alpha-1H (Homo sapiens, UniProt O95180)
Sequence (O95180 whole entry, the tested form may be a part): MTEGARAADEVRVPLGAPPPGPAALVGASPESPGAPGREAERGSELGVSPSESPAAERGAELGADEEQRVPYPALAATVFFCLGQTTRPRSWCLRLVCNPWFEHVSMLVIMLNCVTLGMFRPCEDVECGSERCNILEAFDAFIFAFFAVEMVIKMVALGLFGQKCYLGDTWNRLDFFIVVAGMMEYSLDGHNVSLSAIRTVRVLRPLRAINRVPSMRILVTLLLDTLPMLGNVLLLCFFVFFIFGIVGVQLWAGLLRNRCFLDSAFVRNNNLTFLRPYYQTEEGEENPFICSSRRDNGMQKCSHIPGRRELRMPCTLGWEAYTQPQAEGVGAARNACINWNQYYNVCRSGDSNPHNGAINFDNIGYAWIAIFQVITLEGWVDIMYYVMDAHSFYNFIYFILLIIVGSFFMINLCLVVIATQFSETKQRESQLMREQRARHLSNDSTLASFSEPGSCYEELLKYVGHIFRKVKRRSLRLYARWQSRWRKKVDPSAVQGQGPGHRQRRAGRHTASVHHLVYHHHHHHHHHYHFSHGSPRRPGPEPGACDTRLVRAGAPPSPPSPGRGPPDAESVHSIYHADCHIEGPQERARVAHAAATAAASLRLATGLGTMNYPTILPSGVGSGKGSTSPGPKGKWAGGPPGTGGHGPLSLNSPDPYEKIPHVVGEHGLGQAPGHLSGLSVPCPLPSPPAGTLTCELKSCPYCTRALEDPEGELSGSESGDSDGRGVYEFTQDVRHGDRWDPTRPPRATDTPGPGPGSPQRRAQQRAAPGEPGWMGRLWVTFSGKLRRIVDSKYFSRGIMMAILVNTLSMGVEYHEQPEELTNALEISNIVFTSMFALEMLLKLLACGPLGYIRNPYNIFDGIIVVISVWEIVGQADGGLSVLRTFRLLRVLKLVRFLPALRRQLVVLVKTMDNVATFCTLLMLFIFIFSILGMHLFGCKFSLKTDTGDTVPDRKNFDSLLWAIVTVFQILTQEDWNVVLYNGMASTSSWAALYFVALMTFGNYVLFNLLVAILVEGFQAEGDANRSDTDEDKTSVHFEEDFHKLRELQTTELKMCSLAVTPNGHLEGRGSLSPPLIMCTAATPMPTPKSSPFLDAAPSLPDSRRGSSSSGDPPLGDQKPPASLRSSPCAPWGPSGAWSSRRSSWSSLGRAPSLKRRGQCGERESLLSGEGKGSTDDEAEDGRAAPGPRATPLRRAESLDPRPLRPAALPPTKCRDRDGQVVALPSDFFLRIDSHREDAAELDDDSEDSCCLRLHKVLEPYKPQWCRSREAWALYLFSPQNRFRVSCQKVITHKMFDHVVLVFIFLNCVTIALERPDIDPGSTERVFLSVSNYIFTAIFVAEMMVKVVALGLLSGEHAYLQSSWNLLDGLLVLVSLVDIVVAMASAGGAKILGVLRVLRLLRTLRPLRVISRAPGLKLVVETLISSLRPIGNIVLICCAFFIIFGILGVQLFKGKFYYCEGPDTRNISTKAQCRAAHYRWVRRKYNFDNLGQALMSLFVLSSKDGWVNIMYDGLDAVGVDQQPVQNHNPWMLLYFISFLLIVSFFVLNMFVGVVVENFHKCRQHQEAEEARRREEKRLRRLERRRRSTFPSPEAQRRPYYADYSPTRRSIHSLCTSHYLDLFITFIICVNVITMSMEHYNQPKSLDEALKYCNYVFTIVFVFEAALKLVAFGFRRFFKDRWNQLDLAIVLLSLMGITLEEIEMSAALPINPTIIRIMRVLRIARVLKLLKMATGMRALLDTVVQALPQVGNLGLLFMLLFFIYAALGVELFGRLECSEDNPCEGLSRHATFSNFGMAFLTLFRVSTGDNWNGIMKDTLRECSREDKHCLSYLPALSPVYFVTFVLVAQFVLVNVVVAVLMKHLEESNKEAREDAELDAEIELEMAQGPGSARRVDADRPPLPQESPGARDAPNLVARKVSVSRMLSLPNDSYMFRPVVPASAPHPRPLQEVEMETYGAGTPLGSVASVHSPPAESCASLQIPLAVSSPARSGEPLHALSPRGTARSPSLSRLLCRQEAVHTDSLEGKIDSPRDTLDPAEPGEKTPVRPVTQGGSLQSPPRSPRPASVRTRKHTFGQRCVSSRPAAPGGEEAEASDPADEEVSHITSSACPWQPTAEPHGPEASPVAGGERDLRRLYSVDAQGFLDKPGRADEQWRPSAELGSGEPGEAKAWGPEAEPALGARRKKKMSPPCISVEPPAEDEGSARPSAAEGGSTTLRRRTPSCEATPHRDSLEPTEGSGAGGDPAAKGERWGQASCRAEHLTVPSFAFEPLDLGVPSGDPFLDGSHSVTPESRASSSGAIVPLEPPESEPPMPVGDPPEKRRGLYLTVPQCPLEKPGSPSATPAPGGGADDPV
Test Protocol: Inhibition of GFP-fused Cav3.2-alpha1 (unknown origin) expressed in human tsA-201 cells at 10 uM at holding potential of -110 mV by whole cell patch clamp method relative to control
Format: cell-based
The source made the active and inactive calls. The rule behind the calls is not given here.
Reported Metric: inhibition

{"Compound": "CCOC(=O)C1=C(C)NC(=O)N(CCC(=O)NNS(=O)(=O)c2ccccc2)C1c1cccc([N+](=O)[O-])c1 (stereo not drawn)", "Reported Metric": "inhibition", "Obs Value": "50%"}
{"Compound": "CCOC(=O)C1=C(C)NC(=O)N(CCC(=O)NNC(=S)Nc2ccccc2)C1c1cccc([N+](=O)[O-])c1 (stereo not drawn)", "Reported Metric": "inhibition", "Obs Value": "inactive"}
{"Compound": "CCOC(=O)C1=C(C)NC(=O)N(CCC(=O)N/N=C(/C)CC(c2ccccc2)c2ccccc2)C1c1cccc([N+](=O)[O-])c1 (stereo not drawn)", "Reported Metric": "inhibition", "Obs Value": "70 to 95%"}
{"Compound": "CCOC(=O)C1=C(C)NC(=O)N(CCC(=O)N/N=C/c2ccc(F)cc2)C1c1cccc([N+](=O)[O-])c1 (stereo not drawn)", "Reported Metric": "inhibition", "Obs Value": "70 to 95%"}
{"Compound": "CCOC(=O)C1=C(C)NC(=O)N(CCc2nnc(Nc3ccccc3)s2)C1c1cccc([N+](=O)[O-])c1 (stereo not drawn)", "Reported Metric": "inhibition", "Obs Value": "70 to 95%"}

inhibition recorded for this compound, CCOC(=O)C1=C(C)NC(=O)N(CCC(=O)N/N=C2/SCC(=O)N2c2ccccc2)C1c1cccc([N+](=O)[O-])c1 (stereo not drawn) , is inactive

Record CCOC(=O)C1=C(C)NC(=O)N(CCC(=O)n2nc(C)cc2C)C1c1cccc([N+](=O)[O-])c1 (stereo not drawn) . Reported inhibition: inactive

Field inhibition (entry CCOC(=O)C1=C(C)NC(=O)N(CCC(=O)N/N=C\C=C\c2ccccc2)C1c1cccc([N+](=O)[O-])c1 (stereo not drawn) ) reads 70 to 95%
